Origin of values: ChEMBL document CHEMBL1148394

# Target desc: Estrogen receptor (Homo sapiens, UniProt Q92731+P03372)
# Experiment notes: Binding affinity towards estrogen receptor was determined
# Assay type: protein assay
Quantity measured: Ki (µM)

Item smiles	Target desc	Measurement units	Ki
CCCCCCCNc1nc(NCCCCCCC)nc(NCCCCCCC)n1	Estrogen receptor (Homo sapiens, UniProt Q92731+P03372)	µM	290

a. CC(C)CNc1nc(NCC(C)C)nc(NCC(C)C)n1
b. CCCNc1nc(NCCC)nc(NCCC)n1
c. c1ccc(CCc2cc(NCc3ccccc3)nc(NCc3ccccc3)n2)cc1
List by increasing Ki. Respond with the label ranking, as requested.
c, b, a

---

# Target desc: Estrogen receptor (Homo sapiens, UniProt Q92731+P03372)
# Experiment notes: Binding affinity towards estrogen receptor was determined
# Assay type: protein assay
Quantity measured: Ki (µM)

Item smiles	Target desc	Observed value
CC(C)CCc1nc(NCC(C)C)nc(N(CC(=O)O)C(C)C)n1	Estrogen receptor (Homo sapiens, UniProt Q92731+P03372)	410
c1ccc(CNc2nc(NCc3ccccc3)nc(NCc3ccccc3)n2)cc1	Estrogen receptor (Homo sapiens, UniProt Q92731+P03372)	240
CC(C)CCc1nc(NCC(C)C)nc(N(CC(=O)O)CC(C)C)n1	Estrogen receptor (Homo sapiens, UniProt Q92731+P03372)	790

I. CC(C)CCc1nc(NCC(C)C)nc(NCC(C)C)n1
II. c1ccc2cc(CNc3nc(NCc4ccc5ccccc5c4)nc(NCc4ccc5ccccc5c4)n3)ccc2c1
Hi, I'm comparing two records. Which one has the lower Ki, I or II ? Label of pick, please.
II
(II: 290 µM, I: 650 µM)
